measured-on: KDR receptor on HUVEC cells (human, UniProt P35968 20-1356)
Sequence (P35968 20-1356): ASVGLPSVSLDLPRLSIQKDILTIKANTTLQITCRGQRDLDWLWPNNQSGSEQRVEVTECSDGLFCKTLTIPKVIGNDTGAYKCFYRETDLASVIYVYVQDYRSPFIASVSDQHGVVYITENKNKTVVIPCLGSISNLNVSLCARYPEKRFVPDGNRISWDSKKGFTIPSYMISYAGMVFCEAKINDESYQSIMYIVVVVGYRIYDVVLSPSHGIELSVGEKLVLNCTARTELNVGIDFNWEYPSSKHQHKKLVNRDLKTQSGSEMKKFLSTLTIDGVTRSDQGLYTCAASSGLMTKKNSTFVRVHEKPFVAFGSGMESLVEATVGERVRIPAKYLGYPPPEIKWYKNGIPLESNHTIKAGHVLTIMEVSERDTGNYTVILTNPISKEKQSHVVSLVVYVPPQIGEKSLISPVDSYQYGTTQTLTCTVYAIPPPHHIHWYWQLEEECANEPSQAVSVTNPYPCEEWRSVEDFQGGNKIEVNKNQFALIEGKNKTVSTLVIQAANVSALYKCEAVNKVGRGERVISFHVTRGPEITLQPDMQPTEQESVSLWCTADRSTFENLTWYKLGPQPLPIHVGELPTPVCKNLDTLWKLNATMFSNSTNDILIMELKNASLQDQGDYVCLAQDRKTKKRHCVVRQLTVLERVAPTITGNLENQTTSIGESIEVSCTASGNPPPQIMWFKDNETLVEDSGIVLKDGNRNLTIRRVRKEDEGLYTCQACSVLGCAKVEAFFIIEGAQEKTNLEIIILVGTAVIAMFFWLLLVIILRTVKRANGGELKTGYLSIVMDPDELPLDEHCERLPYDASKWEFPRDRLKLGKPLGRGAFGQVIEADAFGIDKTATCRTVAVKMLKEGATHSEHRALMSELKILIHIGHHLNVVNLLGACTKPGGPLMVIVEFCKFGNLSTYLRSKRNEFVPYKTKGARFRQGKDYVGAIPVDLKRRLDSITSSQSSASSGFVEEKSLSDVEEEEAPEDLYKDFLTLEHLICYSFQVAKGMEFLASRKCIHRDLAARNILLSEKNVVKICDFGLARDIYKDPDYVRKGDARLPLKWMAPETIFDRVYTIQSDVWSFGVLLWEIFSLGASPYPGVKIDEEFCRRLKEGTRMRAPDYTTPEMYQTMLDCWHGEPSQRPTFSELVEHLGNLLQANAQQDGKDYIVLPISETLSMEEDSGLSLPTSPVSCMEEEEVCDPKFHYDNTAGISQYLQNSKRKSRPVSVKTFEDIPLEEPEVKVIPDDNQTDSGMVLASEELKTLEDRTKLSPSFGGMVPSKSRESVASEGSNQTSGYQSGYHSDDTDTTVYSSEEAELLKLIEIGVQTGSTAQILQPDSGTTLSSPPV
protocol-text: cell-based or functional assay
measured-quantity: Endothelial Cell Proliferation Activity (HUVEC, 3H-thymidine) (nM)

INSERT INTO measurements (binder, unit_annotation, numeric_result) VALUES
  ('native VEGF (8-109) (ligand, human, UniProt P15692 214-315, looked up, Homodimer) GQNHHEVVKFMDVYQRSYCHPIETLVDIFQEYPDEIEYIFKPSCVPLMRCGGCCNDEGLECVPTEESNITMQIMRIKPHQGQHIGEMSFLQHNKCECRPKKD', 'nM', 0.5),
  ('LK-VRB-8s* (ligand) APMAEGGGQNHHEVVKFMDVLQRSYCHPIETLVDIFQEYPDEIEYIFKPSCVPLMRCGGCCNSEMRECVPTEESNITMQIMRIKPHQGQHIGEMSFLQHNKCECRPKKD', 'nM', 0.5);
